Values were extracted from paper PMC10786891.

tested on: T1, EsCas13d, nuclease-dead (Eubacterium siraeum, UniProt B0MS50, R295A;H300A;R849A;H854A)
T1 sequence: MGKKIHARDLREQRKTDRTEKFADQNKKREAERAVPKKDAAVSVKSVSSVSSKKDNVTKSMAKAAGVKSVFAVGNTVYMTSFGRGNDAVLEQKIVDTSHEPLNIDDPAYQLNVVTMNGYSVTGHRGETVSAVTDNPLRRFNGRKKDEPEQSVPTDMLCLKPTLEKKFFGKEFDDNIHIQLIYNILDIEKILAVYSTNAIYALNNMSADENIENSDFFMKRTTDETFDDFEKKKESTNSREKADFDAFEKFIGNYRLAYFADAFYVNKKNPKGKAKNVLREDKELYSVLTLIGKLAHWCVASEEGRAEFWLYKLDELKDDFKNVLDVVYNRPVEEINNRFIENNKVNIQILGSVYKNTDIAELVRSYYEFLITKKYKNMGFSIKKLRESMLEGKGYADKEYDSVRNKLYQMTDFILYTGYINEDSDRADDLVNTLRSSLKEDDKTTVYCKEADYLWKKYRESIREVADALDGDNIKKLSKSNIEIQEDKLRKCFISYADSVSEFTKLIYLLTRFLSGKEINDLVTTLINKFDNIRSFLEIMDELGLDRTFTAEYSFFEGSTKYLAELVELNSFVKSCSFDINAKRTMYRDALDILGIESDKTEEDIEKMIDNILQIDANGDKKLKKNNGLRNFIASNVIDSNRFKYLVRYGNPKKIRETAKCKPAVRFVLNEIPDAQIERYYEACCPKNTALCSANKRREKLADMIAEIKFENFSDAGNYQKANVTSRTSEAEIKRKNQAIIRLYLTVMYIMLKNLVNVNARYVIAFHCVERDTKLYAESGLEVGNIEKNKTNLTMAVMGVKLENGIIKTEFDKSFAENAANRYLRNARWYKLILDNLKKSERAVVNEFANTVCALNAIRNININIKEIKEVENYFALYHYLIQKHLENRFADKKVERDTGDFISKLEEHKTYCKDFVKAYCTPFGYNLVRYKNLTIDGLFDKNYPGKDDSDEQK
assay text: crRNA (strand 1, pre-loaded); Mg2+; 40 mM Tris-HCl pH 7.5, 150 mM NaCl, 6 mM MgCl2, 1 mM DTT, 0.1% Tween-20, 0.2 mg/ml BSA; 25 C; 10 min per concentration, then washed
measurement context: tags: His6-TwinStrep-SUMO cleaved; N-terminal SNAP kept (SNAP-Surface 488); label: 3' end held by stalled T7 RNA polymerase
recorded endpoint: pKd
pKd field: float, defined as -log10 of concentration (mol/L).

See these solved cases before continuing.
binder	result
target 3 insG 3' of 9,insG 3' of 2 (mixed) RNA 1: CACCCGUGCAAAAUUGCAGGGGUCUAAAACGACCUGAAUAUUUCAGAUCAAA RNA 2: GGGAAUGGAUCCACAUCUACGAAUUCGUUUUUGAUCUGAAAUAGUUCAGGUGCUGCAGAUCGGAAGAGCACACGU	7.20
target 1 insA 3' of 6,insG 3' of 3 (mixed) RNA 1: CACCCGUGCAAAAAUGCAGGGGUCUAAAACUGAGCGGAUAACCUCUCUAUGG RNA 2: GGGAAUGGAUCCACAUCUACGAAUUCGUACCAUAGAGAGGUUAUCCAGCUGCACCGAGAUCGGAAGAGCACACGU	7.88
target 1 insA 3' of 8,insA 3' of 5 (mixed) RNA 1: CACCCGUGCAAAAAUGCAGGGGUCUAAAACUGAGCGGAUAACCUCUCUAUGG RNA 2: GGGAAUGGAUCCACAUCUACGAAUUCGUACCAUAGAGAGGUUAUACCGACUCACCGAGAUCGGAAGAGCACACGU	7.73
target 1 MT 5'PFS UUG 3'PFS CUU (mixed) RNA 1: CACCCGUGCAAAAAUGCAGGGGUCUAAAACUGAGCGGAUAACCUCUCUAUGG RNA 2: GGGAAUGGAUCCACAUCUACGAAUUCUUGCCAUAGAGAGGUUAUCCGCUCACUUAGAUCGGAAGAGCACACGU	7.84

Continue with the next binder.
Looking up target 1 insG 3' of 19,insC 3' of 3 (mixed) RNA 1: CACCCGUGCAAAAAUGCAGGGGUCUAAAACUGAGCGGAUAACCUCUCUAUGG RNA 2: GGGAAUGGAUCCACAUCUACGAAUUCGUACCAUGAGAGAGGUUAUCCGCUCCACCGAGAUCGGAAGAGCACACGU , I found its pKd recorded as 7.21
